PROCEDURE DETAILS: soluble on expression in E. coli; label from the status in PepcDB or PDB records
ASSAY ENDPOINT: soluble on expression in E. coli

- SEQUENCE DATA: "MIMATLVITIGNDDCVNEGINIICNQCRPIYMNEDNKIIVNVVGEEKFGAGHNAEYITKQVDKHLGIIRDYIIEGLTDCYVEYDENGKEIFIPKTK"
  TEST VALUE: "not soluble"
- SEQUENCE DATA: "GMEGLVMNTRRALFADWRVREAMLLAFDFDLINRTLTGGAEPRIASYFSNSALGMEAGAPATGRERALLEPFAADLLPGTLDGYALPATHGASNRGNLRKAARLLSEAGWRIEDGMLEGPGGTPFAFEILLPQGADAMIAASIIYRQALTRLGISARITTVDPAQFKQRVDNQDFDMTSFLRSLTLSPGNEQLLYWSAEDKDLPGSRNLMGMESPAAEAVIRHMLATDDAEEFQASVRALDRVLTAGRYVIPMWYSR"
  TEST VALUE: "not soluble"
- SEQUENCE DATA: "MIGFAACECIIYNARSLKDKRAVLQRVMTRIRQKYNVSVAEIDHQDAWQRATIGLVAITSSRRATERELERALALIDSFPELERAATSFEWL"
  TEST VALUE: "not soluble"

###

PROCEDURE DETAILS: soluble on expression in E. coli; label from the status in PepcDB or PDB records

- SEQUENCE DATA: "MSKIFEDNSLTIGHTPLVRLNRIGNGRILAKVESRNPSFSVKCRIGANMIWDAEKRGVLKPGVELVEPTSGNTGIALAYVAAARGYKLTLTMPETMSIERRKLLKALGANLVLTEGAKGMKGAIQKAEEIVASNPEKYLLLQQFSNPANPEIHEKTTGPEIWEDTDGQVDVFIAGVGTGGTLTGVSRYIKGTKGKTDLISVAVEPTDSPVIAQALAGEEIKPGPHKIQGIGAGFIPANLDLKLVDKVIGITNEEAISTARRLMEEEGILAGISSGAAVAAALKLQEDESFTNKNIVVILPSSGERYLSTALFADLFTEKELQQ"
  soluble on expression in E. coli: "soluble"
- SEQUENCE DATA: "MERIIQQTDYDALSCKLAAISVGYLPSSGLQRLSVDLSKKYTEWHRSYLITLKKFSRRAFGKVDKAMRSSFPVMNYGTYLRTVGIDAAILEFLVANEKVQVVNLGCGSDLRMLPLLQMFPHLAYVDIDYNESVELKNSILRESEILRISLGLSKEDTAKSPFLIDQGRYKLAACDLNDITETTRLLDVCTKREIPTIVISECLLCYMHNNESQLLINTIMSKFSHGLWISYDPIGGSQPNDRFGAIMQSNLKESRNLEMPTLMTYNSKEKYASRWSAAPNVIVNDMWEIFNAQIPESERKRLRSLQFLDELEELKVMQTHYILMKAQWHHHHHH"
  soluble on expression in E. coli: "soluble"

###

PROCEDURE DETAILS: soluble on expression in E. coli; label from the status in PepcDB or PDB records
ASSAY ENDPOINT: soluble on expression in E. coli

- SEQUENCE DATA: "GSLQDNSSYPDEPWRITEEQREYYVNQFRSLQPDPSSFISGSVAKNFFTKSKLSIPELSYIWELSDADCDGALTLPEFCAAFHLIVARKNGYPLPEGLPPTLQPEFIVTD"
  TEST VALUE: "soluble"
- SEQUENCE DATA: "MSLGDEWARIRKDGALLIGLEGTFPPYSQLAGGQLQGFEVDFGRALAAQMGVTARFQTMVWDHMLDSLAAGRLDAVINQVVATPARGKRFDFSIPYTYSGLQLVVRKPDLTRFRGARDLAGAHVGVSAGTNYEQWLRDNAPQAHIHLYQDDPTKFDGLRRGEVDAIVINRLAAFNLALKSQGELVPTGRVLAREDACVVLRKGNPRLLAEVNRAIGHLQRDGTLQALSRKWFKADIVSEGHHHHHH"
  TEST VALUE: "soluble"
- SEQUENCE DATA: "LVRGGWLWRQSSILRRWKRNWFALWLDGTLGYYHDETAQDEEDRVVIHFNVRDIKVGQECQDVQPPEGRSRDGLLTVNLREGSRLHLCAETRDDAIAWKTALMEANSTPAPAGATVP"
  TEST VALUE: "soluble"
